ASSAY NAME: Permeability across apical to basolateral side in human Caco2 cells expressing p-gp
Type: ADME, cell-based
ASSAY CONDITIONS: Caco-2, read-out: permeability
PROPERTY: Papp A→B
Record the result as number plus unit.

Incoming: # return recorded Papp A→B for input "Nc1ncnc2c1c(C(=O)c1cccc(NC(=O)Nc3c(F)cccc3F)c1)cn2C1CCCC1"
Outgoing: 7.7 ×10⁻⁶ cm/s

###

ASSAY NAME: Metabolic stability in human liver microsomes assessed as hepatic extraction ratio
Assay type: ADME, Microsome
ASSAY CONDITIONS: read-out: ERH
PROPERTY: hepatic extraction ratio

Incoming: In one line, give reported hepatic extraction ratio of the entry "CC(C)n1cc(C(=O)c2cccc(NC(=O)Nc3ccc(Cl)cc3)c2)c2c(N)ncnc21" .
Outgoing: 0.46

###

ASSAY NAME: Solubility of the compound
Type: physicochemical
PROPERTY: solubility (µg/mL)
Only the number, expressed in µg/mL, is required.

Incoming: Complete the entry with solubility for "CC(C)n1cc(C(=O)c2cccc(NC(=O)Nc3ccc(Cl)cc3)c2)c2c(N)ncnc21"
Outgoing: 35

###

ASSAY NAME: Cmax in Sprague-Dawley rat at 4.2 mg/kg, po
Format: ADME, organism-based
Parameters: dose 4.2 mg/kg, route oral
ASSAY CONDITIONS: in vivo
PROPERTY: Cmax (ng/mL)
Give a bare numeral; the unit ng/mL is implied.

Incoming: Note down Cmax recorded for "CC(C)n1cc(C(=O)c2cccc(NC(=O)Nc3ccc(Cl)cc3)c2)c2c(N)ncnc21"
Outgoing: 1720
